Tested on: SK-OV-3
Assay: NCI tumour cell line growth inhibition, 48 h
Calls of active or inactive are those of the source. No stated cut-off is given here; in the data, active = GI50 up to about 1.1 µM and inactive = higher.
Permitted responses: YES = active, NO = inactive

[in] Which outcome did this test record for the compound O=C(O)C1Cc2c([nH]c3ccccc23)C(CCCCO)N1 (stereo not given) ?
[out] NO

[in] I'd appreciate the recorded outcome for Cc1nn(C(=O)c2ccncc2)c2c1C(c1ccccc1)SC(=N)N2 (stereo not given) from this test.
[out] NO

[in] Given CCOC(=O)c1cn2c(n1)sc1cc(C)c(C)cc12 , state the outcome it received in this test.
[out] NO

[in] Which result was noted for this compound in the test: CCCNC(=O)Cn1c(-c2ccccc2)cc2ccccc21
[out] NO

[in] # lookup: test call for CCOC(=O)Cc1cnc(NC(NC(=O)CC)(C(F)(F)F)C(F)(F)F)s1
[out] NO

---
[in] Hello, I am checking results. What call was entered for Cc1cc(N(CCC#N)CCC#N)ccc1C(/N=N/c1ccccc1)=N\NC(=O)c1ccccc1 ?
[out] NO

[in] For this compound, state the assay outcome: Cc1cccc2c1N(C(=O)/C=C\C(=O)O)C(c1c(C)[nH]c3ccccc13)C2 (stereo not given)
[out] NO

[in] How did this test come out for CCC(=C/[C@H](C)C/C=C/C(C)=C/[C@@H](C)C(=O)[C@@H](C)[C@H](O)[C@@H](C)CC)/C=C/[C@H]1CC=CC(=O)O1 [CALLYSTATIN A] ?
[out] YES

[in] I would be grateful if you could indicate the recorded call for Cc1[nH]n(C2=NCCN2)c(=O)c1C .
[out] NO

[in] Any idea what this test logged for CCOC(=O)c1nc2ccc(C(F)(F)F)cc2[nH]c1=O ?
[out] NO

###

Please provide measured GI50 for the entries that follow.
Tested on: U-251
Test: NCI tumour cell line growth inhibition, 48 h
Active and inactive are the calls of the source. Rule as the data show it: active = GI50 up to about 1.1 µM and inactive = higher. Where a SMILES comes first, the peptide text is derived from it. The star is where a group is joined. Boc = CC(C)(C)OC(=O)*; tBu = CC(C)(C)*

Quick note, GI50 for N#CC(c1ccccc1)N(CCc1ccccc1)C(=O)Oc1ccccc1 (stereo unspecified) landed at > 100 µM (inactive)

Summary for this molecule, Cc1ccnc2c1C(=O)C1=C(OC(C)(C)CC1O)C2=O (stereo unspecified) : GI50 is 3.34 µM (inactive)

Lab note: measured GI50 of Cc1ccc(S(=O)(=O)Nc2nc3ccccc3c(=O)n2C2CCCCC2)cc1 was 90.2 µM (inactive)

Form: molecule = CC(OC(C)(C)C)C(NC(=O)C(N)CCCCNC(=O)OC(C)(C)C)C(=O)NC(Cc1ccccc1)C(=O)O (stereo unspecified) (H-Lys(Boc)-Thr(tBu)-Phe-OH; configuration not given here) ; GI50 = > 100 µM (inactive)

Hi! Can you tell me GI50 for each of these molecules?
1. CCCNC(=O)Cn1c(-c2ccccc2)cc2ccccc21
2. Cn1c(N(CCO)CCO)cnc1[N+](=O)[O-]

[out]
1. > 100 µM (inactive)
2. > 100 µM (inactive)

###

System: MDA-MB-231
Assay: NCI tumour cell line growth inhibition, 48 h
The source made the active and inactive calls. Rule as the data show it: active = GI50 up to about 1.1 µM and inactive = higher.
Entry note: the call must match one of active, inactive

Solved cases (8 shown):
[in] Outcome logged for Cc1cccc(C)c1Nc1nc(C)c(C(=O)CC(=O)C(=O)Nc2c(C(C)C)cccc2C(C)C)s1 in this assay:
[out] inactive

[in] Record lookup: outcome of this test for C[C@]12CC[C@H]3[C@@H](CC=C4C[C@@H](O)CC[C@@]43C)[C@@H]1C[C@H](N1CCOCC1)[C@@H]2O ?
[out] inactive

[in] Tell me the recorded outcome of this test for N#CC(c1ccccc1)N(CCOCCOCCN(C(=O)c1cccc2ccccc12)C(C#N)c1ccccc1)C(=O)c1cccc2ccccc12 (centres undefined) .
[out] inactive

[in] Write down the call the test reported for this molecule. Item: CN(C)CCCNc1ccnc2cc([N+](=O)[O-])ccc12
[out] inactive

[in] Name the outcome recorded for COc1ccc(C(=O)C2CC3(CCC2(O)c2ccc(OC)cc2)CC(=O)Nc2ccccc2C3=O)cc1 (centres undefined) in the assay.
[out] inactive

[in] Hello, I am checking results. What call was entered for c1ccc2c(c1)Nc1cccc3c1c-2nc1cc2ccccc2cc13 ?
[out] active

[in] Outcome? C/C(=N\Nc1nc2cccnc2s1)c1ccccn1
[out] active

[in] Just curious, what result did CC(C)/C=C1\CCC(CN(C)C)C1=O (centres undefined) get here?
[out] inactive

Please examine the following record next.
[in] Short answer needed: outcome of this test for CCC(=C/[C@H](C)C/C=C/C(C)=C/[C@@H](C)C(=O)[C@@H](C)[C@H](O)[C@@H](C)CC)/C=C/[C@H]1CC=CC(=O)O1 [CALLYSTATIN A] ?
[out] active

###

Tested on: NCI-H226
Test: NCI tumour cell line growth inhibition, 48 h
The source made the active and inactive calls. Rule as the data show it: active = GI50 up to about 1.1 µM and inactive = higher.
What GI50 was measured for each of the following?

Guide cases for GI50, answers given:
Lab note: measured GI50 of COc1ccc(N[S+]([O-])c2cccc(C)c2)cc1 (stereo unspecified) was > 100 µM (inactive)

Sure, the documented GI50 for COc1ccc(C(=O)C2CC3(CCC2(O)c2ccc(OC)cc2)CC(=O)Nc2ccccc2C3=O)cc1 (stereo unspecified) is > 100 µM (inactive)

Briefly, GI50 measured for COc1ccccc1CNC(=O)[C@H](Cc1ccc(O)cn1)NC(C)=O : > 100 µM (inactive)

In plain terms, Cc1ccc(NC(=O)CC(=O)N2N=C(N(c3ccccc3)c3ccccc3)CC2c2ccccc2)cc1 (stereo unspecified) has a documented GI50 of > 100 µM (inactive)

# batch: return GI50 for each of the 3 compounds below
1. N#Cc1c(-c2ccc([N+](=O)[O-])cc2)c(C#N)c(=O)n(NS(=O)(=O)c2ccccc2)c1-c1ccccc1
2. CCOC(=O)c1c(SC(=O)C(C)(C)Oc2ccc(Cl)cc2)n(-c2ccccc2)c(=S)n(-c2ccccc2)c1=O
3. CN(C)CCn1c(=O)c2ccc(NCCN3CCNCC3)c3c(=O)c4ccccc4n(c1=O)c23

[out]
1. > 100 µM (inactive)
2. 40 µM (inactive)
3. 2.38 µM (inactive)

Record GI50 per entry; entries follow.
1. CCCCOC1CC2(c3ccc(OC)cc3)C(=O)c3ccccc3N2O1 (stereo unspecified)
2. O=[N+]([O-])c1ccc2[nH]ncc2c1Cl
3. COc1ccc(C2CC(=O)c3c(O)cc(O)cc3O2)cc1O (stereo unspecified)
4. CSc1nnc2n1-c1ccccc1SCC2
5. COc1cc([N+](=O)[O-])ccc1N1C(=O)C2c3[nH]c4ccccc4c3C3CCC(C(C)(C)C)CC3C2C1=O (stereo unspecified)
6. C[C@H]1CC[C@H]([C@@H](C)[C@H]2[C@@H](O)C[C@H]3[C@@H]4CC[C@H]5C[C@@H](O)CC[C@]5(C)[C@H]4CC[C@]23C)NC1

[out]
1. > 10 µM (inactive)
2. 8.69 µM (inactive)
3. > 100 µM (inactive)
4. > 100 µM (inactive)
5. > 100 µM (inactive)
6. 18.1 µM (inactive)

# map each compound to its GI50
1. O=C(NCCCN(CCCCN(CCCNC(=O)C(F)(F)F)Cc1ccc2ccccc2c1)Cc1ccc2ccccc2c1)C(F)(F)F
2. COc1ccc(NC(=O)C2=C(SC)C(=O)N=C2N)cc1
3. COC(=O)N/N=C(\C)C(CN1CCCCC1)C(C1=C(O)c2ccccc2OC1)c1ccccc1 (stereo unspecified)

[out]
1. > 100 µM (inactive)
2. > 100 µM (inactive)
3. > 100 µM (inactive)

For each of the compounds below, note its GI50.
1. Cc1cccc(C)c1NC(=O)/C(CC(=O)CC(c1ccccc1)c1c(O)c2ccccc2oc1=O)=N/O (stereo unspecified)
2. O=C(O)Cn1c(=O)[nH]c(=O)c2c1ncn2Cc1ccccc1
3. CC(C)=Cc1cc(C)c2c(O)cc(C)c3c2c1C(C)=C(O)C3=O
4. CN(C)C(=S)/N=c1\ss/c(=N\C(=S)N(C)C)n1-c1ccc(Cl)c(Cl)c1
5. Cc1ccc(C(=O)C#Cc2cn(C3CC(O)C(CO)O3)c(=O)[nH]c2=O)cc1 (stereo unspecified)
6. O=C(CC1=Nc2nnc(CCCCCCCc3nnc4n3C(=O)C(CC(=O)c3ccccc3)=N4)n2C1=O)c1ccccc1

[out]
1. > 100 µM (inactive)
2. > 100 µM (inactive)
3. 21.5 µM (inactive)
4. > 100 µM (inactive)
5. > 100 µM (inactive)
6. > 100 µM (inactive)

Each of the following entries comes with a recorded value; kindly state GI50 for each.
1. Cc1nn(C(=O)c2ccncc2)c2c1C(c1ccccc1)SC(=N)N2 (stereo unspecified)
2. O=C(Cc1ccccc1CCO)NCCc1ccccc1
3. NC1CCC(c2cc3ccccc3s2)(N2CCCCC2)CC1 (stereo unspecified)
4. C=C=C(CC)C(C(=O)OC)N(CC)CC (stereo unspecified)

[out]
1. > 10 µM (inactive)
2. > 100 µM (inactive)
3. 24.1 µM (inactive)
4. > 100 µM (inactive)
